system: SF-295; experiment: NCI tumour cell line growth inhibition, 48 h
Activity calls are given as the source filed them. Rule as the data show it: active = GI50 up to about 1.1 µM and inactive = higher.
Give one outcome, nothing more. List: 1 for active, 0 for inactive

Query: recorded result category for COc1ccc(CCc2ccccc2CC(=O)O)cc1 in this test
Reply: 0

Query: For O=C(OCc1ccccc1)c1ccccc1-c1c2ccc(=O)cc-2oc2cc(OCc3ccccc3)ccc12 then?
Reply: 0

Query: For CCOP(=O)(OCC)OC1c2[nH]ccc2-c2cc(C(=O)OC)[nH]c2C1OC (centres undefined) then?
Reply: 0

Query: For COc1ccc2cc(C(=O)NCCCNC(=O)c3ccc4c(OC)c(OC)ccc4c3)ccc2c1OC then?
Reply: 0

Query: For COC(=O)C(=O)C(C(=O)C(=O)Nc1cccc(OC)c1)c1nc2ccc(Cl)cc2nc1O (centres undefined) then?
Reply: 0

Query: For CC(=O)N(C(C)=O)c1c(N)n(C)c(=O)[nH]c1=O then?
Reply: 0

Query: For CC(C)c1ccc2nc3ccc(C(=O)NCCN4CCN(c5ccccc5)CC4)cn3c(=O)c2c1 then?
Reply: 0

Query: For CC(=O)OC(C)(C)CCC(=O)[C@](C)(O)[C@H]1[C@H](O)C[C@@]2(C)[C@@H]3CC=C4C(C)=C(OC5OC(CO)C(O)C(O)C5O)C(=O)C[C@@H]4[C@]3(C)C(=O)C[C@]12C (some centres undefined) then?
Reply: 0

Query: For Cc1ccccc1C(=O)N/N=C/c1ccc(Sc2nccn2C)c([N+](=O)[O-])c1 then?
Reply: 0

Query: For O=C(Nc1ccc(Cl)cc1)c1cc(S(=O)(=O)Nc2n[nH]c(=O)[nH]2)c(SSc2cc(Cl)c(C(=O)Nc3ccc(Cl)cc3)cc2S(=O)(=O)Nc2n[nH]c(=O)[nH]2)cc1Cl then?
Reply: 0

Query: For CCOP(=O)(O)CN1CCNCCN(CP(=O)(O)OCC)CCNCC1 then?
Reply: 0

Query: For C=C1C(=O)O[C@@H]2OC3(C)CCC4C(C)CCC1C42OO3 (some centres undefined) then?
Reply: 0

Query: For COc1cc(/C=C(\C)c2ccc3c(c2)OCO3)cc(OC)c1OC then?
Reply: 0

Query: For OC1=CN=COc2ccccc21 then?
Reply: 0

Query: For C/C(=N\NC(=S)N1CCN(C2CCCCCC2)CC1)c1ccccn1 then?
Reply: 1

Query: For O=CNCCCN1CCN(CCCNC=O)CC1 then?
Reply: 0

Query: For C=C1C(=O)O[C@H]2C1C[C@H](O)[C@@]1(C)OC1CC[C@@]1(C)O[C@H]21 (some centres undefined) then?
Reply: 0

Query: For COC(O)C(=O)c1c2c(cc3c1CCC3)CCCC2 (centres undefined) then?
Reply: 0

Query: For O=[N+]([O-])c1cnc(N(CCO)CCO)s1 then?
Reply: 0

----------
system: HOP-92; assay: NCI tumour cell line growth inhibition, 48 h
The source made the active and inactive calls. Cut-off read from the data, not from the text of the source: active = GI50 up to about 1.1 µM and inactive = higher.
Quick list: GI50 per entry.

The examples below pair each entry with its known result.
* COC(=O)C(Cc1c[nH]c2ccccc12)NP(=O)(O)OCC1OC(n2cc(F)c(=O)[nH]c2=O)CC1O (stereo not given) | 31.4 µM (inactive)
* Cc1cccc(N(CC(=O)O)S(=O)(=O)c2ccccc2)c1 | > 100 µM (inactive)
* COc1ccc2nc3n(c2c1)CCc1cc(OC)c(OC)cc1-3 | 56 µM (inactive)
* COC(=O)C(=O)C(C(=O)C(=O)Nc1cccc(OC)c1)c1nc2ccc(Cl)cc2nc1O (stereo not given) | 74.5 µM (inactive)
* C=C1C(=O)O[C@@]23C1CC[C@@H](C)C2CC[C@@]1(C)OC31 (stereo not given in full) | 8.79 µM (inactive)

Query: Fill in: GI50 of Sc1nc2c(c(-c3nc(S)nc4c3CCCCCCCCCC4)n1)CCCCCCCCCC2 is ___
Reply: > 100 µM (inactive)

Query: For O=C(NO)C(=O)Nc1ccc(Cl)cc1[N+](=O)[O-] then?
Reply: 83.9 µM (inactive)

Query: For CCOc1ccc(NC(=O)C(=O)CC(=O)c2c[n+]([O-])c3cc(C)c(C)cc3[n+]2[O-])cc1 then?
Reply: > 100 µM (inactive)

Query: For CC(=O)OC1(C#N)CC2OC1C1C2N=NN1C(=O)OC(C)(C)C (stereo not given) then?
Reply: 27.5 µM (inactive)

Query: For Cn1c(=O)c2c(nc(C[N+]3([O-])CCOCC3)n2C)n(C)c1=O then?
Reply: > 100 µM (inactive)
